biological target: mu receptor (Rattus norvegicus); construct: rat whole brain minus cerebellum for mu was homogenized; from tissue; host or cells: brain of male Sprague Dawley rats, whole brain minus cerebellum, homogenate fraction; test: opioid receptor binding assay, [3H] NAL (tritiated naloxone), mu receptor; set-up: species or system rat (Male Sprague Dawley), brain minus cerebellum; settings: 20 min, read-out: % displacement at 10 nM, 10 nM test compound; [3H] naloxone 0.5 nM
Structures can show the parent of a compound that is named as a salt.
TEST_READOUT: inhibition at 0.01 µM (%)

[[record]]
molecule = "C[C@H]1CN(CCC(C(=O)NCCC(=O)O)C2CCCCC2)CC[C@@]1(C)c1cccc(O)c1 (relative stereo) [Example 26, monohydrate]"
test_readout = "inhibition at 0.01 µM"
assay_value = 76

[[record]]
molecule = "CNC(=O)CNC(=O)C(CCN1CC[C@@](C)(c2cccc(O)c2)[C@@H](C)C1)c1ccccc1 (relative stereo) [Example 13, monohydrochloride]"
test_readout = "inhibition at 0.01 µM"
assay_value = 94

[[record]]
molecule = "CCNC(=O)CCCNC(=O)C(CC1CCCCC1)CN1CC[C@@](C)(c2cccc(O)c2)[C@@H](C)C1 (stereo partly drawn) [Example 42, monohydrate hydrochloride]"
test_readout = "inhibition at 0.01 µM"
assay_value = 100


====

molecular target: mu receptor (Rattus norvegicus); construct: rat whole brain minus cerebellum for mu was homogenized; from tissue; host or cells: brain of male Sprague Dawley rats, whole brain minus cerebellum, homogenate fraction; experiment: opioid receptor binding assay, [3H] NAL (tritiated naloxone), mu receptor; parameters: species or system rat (Male Sprague Dawley), brain minus cerebellum; conditions: 20 min, read-out: % displacement at 100 nM, 100 nM test compound; [3H] naloxone 0.5 nM
Where a name gives a salt, the structure may show the parent alone.
TEST_READOUT: inhibition at 0.1 µM (%)

[[record]]
compound = "CCNC(=O)CNC(=O)C(CCN1CC[C@@](C)(c2cccc(O)c2)[C@@H](C)C1)c1ccccc1 (relative stereo) [Example 15, monohydrochloride monohydrate]"
system_under_test = "mu receptor (Rattus norvegicus)"
assay_value = 100

[[record]]
compound = "C[C@H]1CN(CC(CC2CCCCC2)C(=O)NCC(=O)O)CC[C@@]1(C)c1cccc(O)c1 (relative stereo) [Example 30, monohydrate]"
system_under_test = "mu receptor (Rattus norvegicus)"
assay_value = 93

[[record]]
compound = "CNC(=O)CNC(=O)C(CC1CCCCC1)CN1CC[C@@](C)(c2cccc(O)c2)[C@@H](C)C1 (relative stereo) [Example 32, monohydrochloride]"
system_under_test = "mu receptor (Rattus norvegicus)"
assay_value = 100


====

molecular target: mu receptor (Rattus norvegicus, UniProt P33535); construct: rat whole brain minus cerebellum for mu was homogenized; from tissue; host or cells: brain of male Sprague Dawley rats, whole brain minus cerebellum, homogenate fraction; experiment: opioid receptor binding assay, [3H] NAL (tritiated naloxone), mu receptor; parameters: species or system rat (Male Sprague Dawley), brain minus cerebellum; conditions: 20 min, 10 nM test compound; [3H] naloxone 0.5 nM; read-out: % displacement at 10 nM
Sequence (P33535 whole entry): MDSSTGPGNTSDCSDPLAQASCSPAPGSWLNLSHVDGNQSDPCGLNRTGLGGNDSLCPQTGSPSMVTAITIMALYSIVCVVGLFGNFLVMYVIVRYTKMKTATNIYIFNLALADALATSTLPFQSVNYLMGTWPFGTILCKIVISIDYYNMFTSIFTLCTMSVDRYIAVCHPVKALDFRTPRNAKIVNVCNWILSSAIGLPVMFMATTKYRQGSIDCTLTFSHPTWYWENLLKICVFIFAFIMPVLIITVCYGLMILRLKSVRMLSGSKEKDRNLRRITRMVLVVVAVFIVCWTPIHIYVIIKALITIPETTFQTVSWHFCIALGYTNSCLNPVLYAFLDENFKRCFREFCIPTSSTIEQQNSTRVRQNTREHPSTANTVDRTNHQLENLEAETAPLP
Where a name gives a salt, the structure may show the parent alone.
inhibition at 0.01 µM below 70% gives not fulfilled; inhibition at 0.01 µM at or above it gives fulfilled.

[[record]]
compound = "COC(=O)COC(=O)CNC(=O)C(Cc1ccccc1)CN1CC[C@@](C)(c2cccc(O)c2)[C@@H](C)C1 (relative stereo)"
assigned_label = "fulfilled"

[[record]]
compound = "C[C@H]1CN(CC(Cc2ccccc2)C(=O)NCCN(C)C)CC[C@@]1(C)c1cccc(O)c1 (relative stereo) [Example 69, dihydrochloride]"
assigned_label = "not fulfilled"

[[record]]
compound = "C[C@H]1CN(CC(Cc2ccccc2)C(=O)NCC(=O)OCC2CCCCC2)CC[C@@]1(C)c1cccc(O)c1 (stereo partly drawn) [Example 53, monohydrochloride]"
assigned_label = "not fulfilled"

[[record]]
compound = "Cc1oc(=O)oc1COC(=O)CNC(=O)C(Cc1ccccc1)CN1CC[C@@](C)(c2cccc(O)c2)[C@@H](C)C1 (relative stereo)"
assigned_label = "fulfilled"

[[record]]
compound = "C[C@H]1CN(CC(Cc2ccccc2)C(=O)NCC(=O)OCC(=O)NCc2ccccc2)CC[C@@]1(C)c1cccc(O)c1 (relative stereo)"
assigned_label = "fulfilled"

[[record]]
compound = "C[C@H]1CN(CC(Cc2ccccc2)C(=O)NCC(=O)OCC(=O)N(C)C)CC[C@@]1(C)c1cccc(O)c1 (relative stereo)"
assigned_label = "fulfilled"

[[record]]
compound = "CCOC(=O)CN(C)C(=O)C(Cc1ccccc1)CN1CC[C@@](C)(c2cccc(O)c2)[C@@H](C)C1 (stereo partly drawn) [Example 65, monohydrochloride]"
assigned_label = "not fulfilled"

[[record]]
compound = "CCNC(=O)CNC(=O)C(Cc1ccccc1)CN1CC[C@@](C)(c2cccc(OC)c2)[C@@H](C)C1 (single isomer, unassigned)"
assigned_label = "not fulfilled"

[[record]]
compound = "C[C@H]1CN(CC(Cc2ccccc2)C(=O)NCC(=O)OCC(N)=O)CC[C@@]1(C)c1cccc(O)c1 (relative stereo)"
assigned_label = "fulfilled"

[[record]]
compound = "CCNC(=O)COC(=O)CNC(=O)C(Cc1ccccc1)CN1CC[C@@](C)(c2cccc(O)c2)[C@@H](C)C1 (relative stereo)"
assigned_label = "fulfilled"

[[record]]
compound = "CC(=O)OC(C)OC(=O)CNC(=O)C(Cc1ccccc1)CN1CC[C@@](C)(c2cccc(O)c2)[C@@H](C)C1 (relative stereo)"
assigned_label = "fulfilled"


====

target: mu receptor (Rattus norvegicus); construct: rat whole brain minus cerebellum for mu was homogenized; from tissue; host or cells: brain of male Sprague Dawley rats, whole brain minus cerebellum, homogenate fraction; assay: opioid receptor binding assay, [3H] NAL (tritiated naloxone), mu receptor; set-up: species or system rat (Male Sprague Dawley), brain minus cerebellum
pKi: −log10 of the molar value. Counter-ions that a name gives are not always drawn.
pKi below 9 gives 0; pKi at or above it gives 1.

[[record]]
compound = "CNC(=O)CCCNC(=O)C(CC1CCCCC1)CN1CC[C@@](C)(c2cccc(O)c2)[C@@H](C)C1 (stereo partly drawn) [Example 41, monohydrochloride]"
assigned_label = 1

[[record]]
compound = "CNC(=O)CCCNC(=O)C(CCN1CC[C@@](C)(c2cccc(O)c2)[C@@H](C)C1)C1CCCCC1 (relative stereo) [Example 24, monohydrochloride monohydrate]"
assigned_label = 1

[[record]]
compound = "CCOC(=O)CCNC(=O)C(CC1CCCCC1)CN1CC[C@@](C)(c2cccc(O)c2)[C@@H](C)C1 (stereo partly drawn) [Example 36, monohydrochloride]"
assigned_label = 1

[[record]]
compound = "C[C@H]1CN(CC(Cc2ccccc2)C(=O)NCC(=O)N(C)C)CC[C@@]1(C)c1cccc(O)c1 (stereo partly drawn) [Example 47, monohydrochloride monohydrate]"
assigned_label = 0

[[record]]
compound = "C[C@H]1CN(CCC(C(=O)NCCCC(=O)O)C2CCCCC2)CC[C@@]1(C)c1cccc(O)c1 (relative stereo) [Example 28, monohydrate]"
assigned_label = 0

[[record]]
compound = "CCOC(=O)CNC(=O)C(CC1CCCCC1)CN1CC[C@@](C)(c2cccc(O)c2)[C@@H](C)C1 (relative stereo) [Example 29, monohydrochloride]"
assigned_label = 0

[[record]]
compound = "CNC(=O)CCNC(=O)C(Cc1ccccc1)CN1CC[C@@](C)(c2cccc(O)c2)[C@@H](C)C1 (stereo partly drawn) [Example 59, monohydrochloride]"
assigned_label = 0

[[record]]
compound = "C[C@H]1CN(CC(CC2CCCCC2)C(=O)NCCC(N)=O)CC[C@@]1(C)c1cccc(O)c1 (stereo partly drawn) [Example 38, hydrochloride]"
assigned_label = 1

[[record]]
compound = "CCOC(=O)CNC(=O)C(CCN1CC[C@@](C)(c2cccc(O)c2)[C@@H](C)C1)c1ccccc1 (relative stereo) [Example 11, monohydrochloride]"
assigned_label = 1

[[record]]
compound = "CCOC(=O)C(CC1CCCCC1)CN1CC[C@@](C)(c2cccc(O)c2)[C@@H](C)C1 (relative stereo) [Example 5A, hydrochloride]"
assigned_label = 0


====

biological target: mu receptor (Rattus norvegicus, UniProt P33535); construct: rat whole brain minus cerebellum for mu was homogenized; from tissue; host or cells: brain of male Sprague Dawley rats, whole brain minus cerebellum, homogenate fraction; test: opioid receptor binding assay, [3H] NAL (tritiated naloxone), mu receptor; design: species or system rat (Male Sprague Dawley), brain minus cerebellum; conditions: 20 min, read-out: % displacement at 10 nM, 10 nM test compound; [3H] naloxone 0.5 nM
Structures can show the parent of a compound that is named as a salt.
TEST_READOUT: inhibition at 0.01 µM (%)

[[record]]
compound = "CNC(=O)CCNC(=O)C(Cc1ccccc1)CN1CC[C@@](C)(c2cccc(O)c2)[C@@H](C)C1 (stereo partly drawn) [Example 59, monohydrochloride]"
test_readout = "inhibition at 0.01 µM"
assay_value = 88

[[record]]
compound = "CCNC(=O)CNC(=O)C(CCN1CC[C@@](C)(c2cccc(O)c2)[C@@H](C)C1)c1ccccc1 (relative stereo) [Example 15, monohydrochloride monohydrate]"
test_readout = "inhibition at 0.01 µM"
assay_value = 99

[[record]]
compound = "C[C@H]1CN(CC(Cc2ccccc2)C(=O)N(C)CC(=O)O)CC[C@@]1(C)c1cccc(O)c1 (relative stereo) [Example 66, monohydrate]"
test_readout = "inhibition at 0.01 µM"
assay_value = 70

[[record]]
compound = "CCOC(=O)C(CC1CCCCC1)CN1CC[C@@](C)(c2cccc(O)c2)[C@@H](C)C1 (relative stereo) [Example 5A, hydrochloride]"
test_readout = "inhibition at 0.01 µM"
assay_value = 61

[[record]]
compound = "CNC(=O)CCNC(=O)C(CCN1CC[C@@](C)(c2cccc(O)c2)[C@@H](C)C1)C1CCCCC1 (relative stereo) [Example 18, monohydrochloride]"
test_readout = "inhibition at 0.01 µM"
assay_value = 97

[[record]]
compound = "CCNC(=O)CNC(=O)C(CCN1CC[C@@](C)(c2cccc(O)c2)[C@@H](C)C1)C1CCCCC1 (relative stereo) [Example 22, hydrochloride]"
test_readout = "inhibition at 0.01 µM"
assay_value = 100

[[record]]
compound = "C[C@H]1CN(CC(Cc2ccccc2)C(=O)NCCCC(N)=O)CC[C@@]1(C)c1cccc(O)c1 (stereo partly drawn) [Example 63, monohydrochloride]"
test_readout = "inhibition at 0.01 µM"
assay_value = 89

[[record]]
compound = "C[C@H]1CN(CCC(C(=O)NCC(=O)O)c2ccccc2)CC[C@@]1(C)c1cccc(O)c1 (relative stereo) [Example 12, monohydrate]"
test_readout = "inhibition at 0.01 µM"
assay_value = 84

[[record]]
compound = "C[C@H]1CN(CCC(C(=O)NCCC(=O)OCc2ccccc2)C2CCCCC2)CC[C@@]1(C)c1cccc(O)c1 (relative stereo) [Example 25, hydrochloride monohydrate]"
test_readout = "inhibition at 0.01 µM"
assay_value = 100

[[record]]
compound = "CNC(=O)CCCNC(=O)C(Cc1ccccc1)CN1CC[C@@](C)(c2cccc(O)c2)[C@@H](C)C1 (stereo partly drawn) [Example 62, monohydrochloride monohydrate]"
test_readout = "inhibition at 0.01 µM"
assay_value = 89

[[record]]
compound = "C[C@H]1CN(CC(CC2CCCCC2)C(=O)NCCC(=O)O)CC[C@@]1(C)c1cccc(O)c1 (stereo partly drawn) [Example 35, hydrochloride]"
test_readout = "inhibition at 0.01 µM"
assay_value = 98

[[record]]
compound = "C[C@H]1CN(CCC(C(=O)O)C2CCCCC2)CC[C@@]1(C)c1cccc(O)c1 (relative stereo) [Example 9B, hydrochloride]"
test_readout = "inhibition at 0.01 µM"
assay_value = 90

